Reported values of log10 IC50 for individual entries
target: RAC-alpha serine/threonine-protein kinase (Homo sapiens, UniProt P31749); test: Inhibition of Akt1 phosphorylation by HTRF assay
Sequence (P31749 whole entry): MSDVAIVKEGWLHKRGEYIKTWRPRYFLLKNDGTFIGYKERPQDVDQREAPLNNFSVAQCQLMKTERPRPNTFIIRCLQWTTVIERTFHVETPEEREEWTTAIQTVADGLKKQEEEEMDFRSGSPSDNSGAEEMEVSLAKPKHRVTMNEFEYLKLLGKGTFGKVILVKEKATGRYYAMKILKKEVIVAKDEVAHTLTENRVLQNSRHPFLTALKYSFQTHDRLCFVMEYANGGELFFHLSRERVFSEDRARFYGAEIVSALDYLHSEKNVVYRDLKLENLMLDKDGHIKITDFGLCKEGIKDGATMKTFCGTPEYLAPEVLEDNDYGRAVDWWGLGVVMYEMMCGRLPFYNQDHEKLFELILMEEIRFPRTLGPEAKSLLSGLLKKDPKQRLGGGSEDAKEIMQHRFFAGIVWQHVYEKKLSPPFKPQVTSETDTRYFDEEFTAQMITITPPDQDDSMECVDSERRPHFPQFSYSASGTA
Remember, log10 of IC50, in nM.

{"columns": ["line-notation", "log10 IC50"],
 "data": [
  ["CN(C)CC(=O)N1CCN(c2ncc3cc(-c4ccccc4)c(-c4ccc(CN5CCC(c6nnc(-c7ccccn7)[nH]6)CC5)cc4)nc3n2)CC1", 0.78],
  ["CN1CCN(c2cc3cc(-c4ccccc4)c(-c4ccc(CN5CCC(c6nnc(-c7ccccn7)[nH]6)CC5)cc4)nc3cn2)CC1", 2.87],
  ["c1ccc(-c2cc3cnc(N4CCOCC4)nc3nc2-c2ccc(CN3CCC(c4nnc(-c5ccccn5)[nH]4)CC3)cc2)cc1", 0.70],
  ["c1ccc(-c2cc3cnc(N4CCCCC4)nc3nc2-c2ccc(CN3CCC(c4nnc(-c5ccccn5)[nH]4)CC3)cc2)cc1", 1.26],
  ["OC1CCN(c2ncc3cc(-c4ccccc4)c(-c4ccc(CN5CCC(c6nnc(-c7ccccn7)[nH]6)CC5)cc4)nc3n2)CC1", 0.85],
  ["OCCN1CCN(c2ncc3cc(-c4ccccc4)c(-c4ccc(CN5CCC(c6nnc(-c7ccccn7)[nH]6)CC5)cc4)nc3n2)CC1", 0.95]
]}

Okay, now this molecule:
Q) Identify measured log10 IC50 obtained with RAC-alpha serine/threonine-protein kinase (Homo sapiens, UniProt P31749) for `C[C@@H]1CN[C@@H](C)CN1c1ncc2cc(-c3ccccc3)c(-c3ccc(CN4CCC(c5nnc(-c6ccccn6)[nH]5)CC4)cc3)nc2n1` .
A) 1.63
